Tested on: corn
assay_text: Phytotoxicity test for upland field crops (foliar treatment test)
Assay type: in vivo
run_parameters: 100 g ai/ha, Corn (7 days after treatment)
measured_quantity: Foliar treatment phytotoxicity, Corn

GET /values?readout=Foliar treatment phytotoxicity, Corn&item= "Cn1nnc(COc2nc(C(F)(F)F)ccc2C(=O)Nc2nnnn2C)n1" 2

Proceed to "Cn1nnc(CSCc2nc(C(F)(F)F)ccc2C(=O)N(c2nnnn2C)S(C)(=O)=O)n1" 0

Proceed to "Cc1nc(COCc2nc(C(F)(F)F)ccc2C(=S)Nc2nnnn2C)nn1C" 3

Proceed to "Cn1nnnc1NC(=O)c1ccc(C(F)(F)F)nc1OCc1nnnn1C(F)F" 2

Proceed to "Cn1nnnc1NC(=O)c1ccc(C(F)(F)F)nc1COCc1nc(C(F)(F)F)n(C)n1" 0

Proceed to "CCCn1nnnc1NC(=O)c1ccc(C(F)(F)F)nc1COCc1nc(C(F)F)n(C)n1" 3

Proceed to "CCn1nnc(COCc2nc(C(F)(F)F)ccc2C(=O)Nc2nnnn2C)n1" 0

Proceed to "Cn1nnc(COCc2nc(C(F)(F)Cl)ccc2C(=O)Nc2nnnn2C)n1" 3

Proceed to "CCCn1nnnc1NC(=O)c1ccc(C(F)(F)F)nc1COCc1nc(C(F)(F)F)n(C)n1" 0

Proceed to "C=Cc1nc(COCc2nc(C(F)(F)F)ccc2C(=O)Nc2nnnn2C)nn1C" 0

Proceed to "Cn1nnnc1COCc1nc(C(F)(F)F)ccc1C(=O)Nc1nnnn1C" 0

Proceed to "C=CCn1nnnc1NC(=O)c1ccc(C(F)(F)F)nc1COCc1nnn(CC)n1" 0

Proceed to "Cn1nnnc1COc1nc(C(F)(F)F)ccc1C(=O)Nc1nnnn1C" 4

Proceed to "CCCn1nnnc1NC(=O)c1ccc(C(F)(F)F)nc1COCc1ncn(C)n1" 2

Proceed to "COCn1nnc(COCc2nc(C(F)(F)F)ccc2C(=O)Nc2nnnn2C)n1" 3

Proceed to "Cn1nc(COCc2nc(C(F)(F)F)ccc2C(=O)Nc2nnnn2C)nc1CF" 3

Proceed to "Cn1ncnc1COc1nc(C(F)(F)F)ccc1C(=O)Nc1nnnn1C" 3
